Hi there, I'd appreciate the recorded pIC50 for every entry that follows.
biological target: vitronectin receptor (Vn-R) (Homo sapiens, UniProt P05106+P06756); construct: from tissue; host or cells: human placenta; test: VnR binding, ELISA or liposome attachment assay (Table I)
Sequence (P06756 31-889 limits assumed): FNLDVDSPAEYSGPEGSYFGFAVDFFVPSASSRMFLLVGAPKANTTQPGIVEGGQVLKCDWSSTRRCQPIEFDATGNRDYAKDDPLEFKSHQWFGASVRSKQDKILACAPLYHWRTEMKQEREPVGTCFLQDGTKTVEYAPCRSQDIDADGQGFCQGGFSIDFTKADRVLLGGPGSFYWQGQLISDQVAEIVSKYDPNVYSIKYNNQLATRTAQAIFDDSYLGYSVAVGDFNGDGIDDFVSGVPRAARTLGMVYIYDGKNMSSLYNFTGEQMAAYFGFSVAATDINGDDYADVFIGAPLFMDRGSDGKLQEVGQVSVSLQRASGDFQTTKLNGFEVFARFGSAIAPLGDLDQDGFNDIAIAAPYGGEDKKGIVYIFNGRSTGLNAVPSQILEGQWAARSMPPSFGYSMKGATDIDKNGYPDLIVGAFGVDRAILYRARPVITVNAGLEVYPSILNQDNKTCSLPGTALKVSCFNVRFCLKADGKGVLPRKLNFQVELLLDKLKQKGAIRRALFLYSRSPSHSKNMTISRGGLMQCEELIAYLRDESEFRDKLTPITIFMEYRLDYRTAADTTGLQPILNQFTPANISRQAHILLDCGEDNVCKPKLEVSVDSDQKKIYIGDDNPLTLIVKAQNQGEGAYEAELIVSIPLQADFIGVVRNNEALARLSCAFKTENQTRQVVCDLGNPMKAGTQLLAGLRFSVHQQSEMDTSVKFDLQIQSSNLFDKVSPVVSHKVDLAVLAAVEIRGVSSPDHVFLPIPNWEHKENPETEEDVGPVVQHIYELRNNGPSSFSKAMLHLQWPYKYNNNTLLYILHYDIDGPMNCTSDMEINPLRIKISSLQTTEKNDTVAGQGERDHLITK
Sequence (P06756 891-1048 partner limits assumed): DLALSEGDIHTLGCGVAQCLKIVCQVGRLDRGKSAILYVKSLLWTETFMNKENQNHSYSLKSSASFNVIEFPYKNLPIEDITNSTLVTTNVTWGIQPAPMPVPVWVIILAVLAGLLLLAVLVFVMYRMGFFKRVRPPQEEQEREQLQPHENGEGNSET
Sequence (P05106 27-788): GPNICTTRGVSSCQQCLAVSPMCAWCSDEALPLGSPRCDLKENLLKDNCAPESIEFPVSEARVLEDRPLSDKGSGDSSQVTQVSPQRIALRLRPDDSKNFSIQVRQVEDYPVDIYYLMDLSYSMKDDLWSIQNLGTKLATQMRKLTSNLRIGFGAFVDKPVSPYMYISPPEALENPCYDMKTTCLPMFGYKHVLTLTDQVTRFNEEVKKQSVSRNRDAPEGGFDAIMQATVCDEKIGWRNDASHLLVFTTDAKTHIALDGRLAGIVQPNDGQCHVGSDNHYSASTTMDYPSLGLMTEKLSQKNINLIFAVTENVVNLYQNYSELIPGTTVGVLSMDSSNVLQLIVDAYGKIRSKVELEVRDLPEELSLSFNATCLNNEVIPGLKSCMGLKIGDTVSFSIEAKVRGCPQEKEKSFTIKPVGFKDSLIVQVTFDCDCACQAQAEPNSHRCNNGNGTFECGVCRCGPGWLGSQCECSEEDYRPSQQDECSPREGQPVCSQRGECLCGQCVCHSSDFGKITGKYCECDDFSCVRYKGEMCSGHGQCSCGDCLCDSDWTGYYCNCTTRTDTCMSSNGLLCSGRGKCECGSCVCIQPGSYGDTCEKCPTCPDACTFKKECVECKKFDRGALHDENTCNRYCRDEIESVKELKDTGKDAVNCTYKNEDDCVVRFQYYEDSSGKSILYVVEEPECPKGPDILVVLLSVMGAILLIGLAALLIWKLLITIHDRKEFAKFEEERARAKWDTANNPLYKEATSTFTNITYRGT
One number for each entry, as −log10 of the molar value.

LRGDSPDG; 6.70
FRGDSPDG; 7.40

Hello, I would appreciate it if you could give pIC50 for each entry below.
1. YRGDSPDG
2. VRGDSPDG

1: 7.10; 2: 6.62
